Where these numbers come from: patent US6153624A

# target: N-methyl-D-aspartate (NMDA) receptor containing the NR2B subunit (Rattus norvegicus, UniProt P35439+Q00960)
# Construct: Membranes were prepared by homogenization of the whole brain minus cerebellum and medulla oblongata; from tissue; host or cells: rat whole brain minus cerebellum and medulla oblongata, membranes
# Sequence (Q00960 27-1482, other chains not shown): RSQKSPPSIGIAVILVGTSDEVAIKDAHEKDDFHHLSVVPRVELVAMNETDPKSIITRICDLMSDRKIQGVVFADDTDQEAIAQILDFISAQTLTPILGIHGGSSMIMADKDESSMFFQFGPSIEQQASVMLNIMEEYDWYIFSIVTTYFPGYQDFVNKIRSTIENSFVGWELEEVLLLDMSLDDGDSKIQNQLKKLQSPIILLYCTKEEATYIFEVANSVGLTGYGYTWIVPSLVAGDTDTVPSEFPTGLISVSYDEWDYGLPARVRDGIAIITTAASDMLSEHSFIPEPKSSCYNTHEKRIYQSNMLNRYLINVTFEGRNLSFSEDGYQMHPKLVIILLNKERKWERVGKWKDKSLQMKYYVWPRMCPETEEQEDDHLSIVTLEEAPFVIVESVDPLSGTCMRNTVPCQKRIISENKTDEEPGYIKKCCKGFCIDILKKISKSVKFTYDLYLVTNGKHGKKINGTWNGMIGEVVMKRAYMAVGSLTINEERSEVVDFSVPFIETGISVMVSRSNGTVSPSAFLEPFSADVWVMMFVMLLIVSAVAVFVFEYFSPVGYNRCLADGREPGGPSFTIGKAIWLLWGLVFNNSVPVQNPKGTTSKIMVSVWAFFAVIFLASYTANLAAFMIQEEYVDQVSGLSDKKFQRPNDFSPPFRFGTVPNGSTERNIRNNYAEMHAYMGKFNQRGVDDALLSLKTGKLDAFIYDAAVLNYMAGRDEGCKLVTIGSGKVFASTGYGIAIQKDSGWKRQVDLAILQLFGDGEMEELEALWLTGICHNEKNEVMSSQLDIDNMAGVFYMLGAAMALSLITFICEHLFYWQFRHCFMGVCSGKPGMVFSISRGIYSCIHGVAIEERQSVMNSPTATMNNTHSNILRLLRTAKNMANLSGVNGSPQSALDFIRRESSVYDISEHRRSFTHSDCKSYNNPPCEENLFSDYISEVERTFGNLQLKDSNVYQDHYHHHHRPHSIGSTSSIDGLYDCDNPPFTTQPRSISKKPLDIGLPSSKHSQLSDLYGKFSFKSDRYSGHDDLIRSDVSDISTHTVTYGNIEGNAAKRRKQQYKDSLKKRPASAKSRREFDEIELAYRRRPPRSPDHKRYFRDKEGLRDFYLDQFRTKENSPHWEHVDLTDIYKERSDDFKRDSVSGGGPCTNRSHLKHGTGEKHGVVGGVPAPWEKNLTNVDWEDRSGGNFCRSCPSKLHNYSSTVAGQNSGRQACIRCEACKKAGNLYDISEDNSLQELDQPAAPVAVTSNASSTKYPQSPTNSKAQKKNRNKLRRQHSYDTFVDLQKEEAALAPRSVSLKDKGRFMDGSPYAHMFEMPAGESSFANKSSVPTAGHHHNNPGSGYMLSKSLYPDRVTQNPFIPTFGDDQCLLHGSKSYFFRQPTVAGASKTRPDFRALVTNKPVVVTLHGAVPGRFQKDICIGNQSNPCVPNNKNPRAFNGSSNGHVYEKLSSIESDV
# testDescription: 3H-Ro 25-6981 binding (displacement) to rat brain membranes
# Design: species or system rat (male Fullinsdorf albino)
# testSettings: 3H-Ro 25-6981 5 nM, 2 hours at 4° C., pH 7.4, rat whole brain minus cerebellum and medulla oblongata
endpointLabel: IC50 (nM)
State just the number; it will be interpreted in nM.

Request: State the recorded IC50 for this entry: COc1ccc(CCC2CCC(C(=O)c3ccc(O)cc3)N2)cc1 (racemic)
Response: 70

Request: // repeat for Oc1ccc([C@@H](O)[C@@H]2CC[C@@H](CCc3ccccc3)N2)cc1O (racemic) and report
Response: 40

Request: // repeat for Oc1ccc([C@@H](O)[C@@H]2CC[C@@H](CCc3ccccc3)N2)cc1 (racemic) and report
Response: 20

Request: // repeat for COc1ccc(CC[C@H]2CC[C@@H]([C@H](O)c3ccc(O)c(F)c3)N2)cc1 (racemic) and report
Response: 30

Request: // repeat for Oc1ccc([C@H]2OCN3[C@H](CCc4ccccc4)CC[C@@H]23)cc1 (racemic) and report
Response: 50

Request: // repeat for COc1ccc(CC[C@@H]2CCC[C@H](C(O)c3ccc(O)cc3)N2)cc1 (stereo partly drawn) and report
Response: 30

Request: // repeat for COc1ccc(CC[C@@H]2CC[C@H](Cc3ccc(O)cc3)N2)cc1 (racemic) and report
Response: 40

Request: // repeat for COc1ccc(CC[C@@H]2CCC[C@H](Cc3ccc(O)cc3)N2)cc1 (racemic) and report
Response: 45

Request: // repeat for Oc1ccc([C@H]2OCCN3[C@@H](CCc4ccccc4)CC[C@H]23)cc1 (racemic) and report
Response: 90
